Hey, just so you know, these numbers are from BigSolDB 2.1.

- Experimental Conditions: in toluene, 313.15 K
Parameter: solubility (mole fraction)
Number only, no unit.

Record CC(=O)Nc1ccc(OC(=O)c2ccccc2OC(C)=O)cc1 , field solubility (mole fraction): 8.6e-05

====

- Experimental Conditions: in 2-butanone, 298.15 K
Parameter: solubility (mole fraction)

solubility (mole fraction) recorded for this molecule, CC(=O)Nc1ccc(OC(=O)c2ccccc2OC(C)=O)cc1 , is 0.00333

====

- Experimental Conditions: in NMP, 288.15 K
Parameter: solubility (mole fraction)
The answer should be written as a number, with no unit following it.

# solubility (mole fraction) of CC(=O)Nc1ccc(OC(=O)c2ccccc2OC(C)=O)cc1 = 0.0272
